Where do these numbers come from? They come from the OligoGym collection.

// reported target mRNA inhibition for each item listed
- TEST_TARGET: KRAS
- CONDITIONS: ASO, A431, 2 µM
After the bases stand the sugars from the 5' end (letter, count) and the backbone: PS all phosphorothioate, else s phosphorothioate and o phosphodiester by linkage. Methylation of C is not given here. e = 2'-O-(2-methoxyethyl) (MOE); k = constrained ethyl (cEt); d = 2'-deoxy (DNA)

Worked examples, 4 sequences total:
Return target mRNA inhibition for the following sequence: AGATTGTGCTGAGCTT (sugars kkkddddddddkekek, PS)
26%

Return target mRNA inhibition for the following sequence: GGAGTCTTTATAGTAA (sugars kkdddddddddkdkdk, PS)
29%

Return target mRNA inhibition for the following sequence: CATTTATGTGACTAGA (sugars kdddddddddkekeke, PS)
24%

Return target mRNA inhibition for the following sequence: GGGCATTTCTGATGTG (sugars k3 d10 k3, PS)
7%

***
Return target mRNA inhibition for the following sequence: AAAAAAATTAATGTCT (sugars k3 d10 k3, PS)
7%

Return target mRNA inhibition for the following sequence: AGATTGTGCTGAGCTT (sugars kkddddddddkekekk, PS)
0%

Return target mRNA inhibition for the following sequence: TTAGTGATTAGGTCAA (sugars kkdddddddddkekek, PS)
48%

Return target mRNA inhibition for the following sequence: GGCATTTCTGATGTGA (sugars k3 d10 k3, PS)
8%
